# Assay Remarks: Plasma half-lives of TA and OH-TA-Ester after oral triamterene
# Type: in vivo, Menschen
# Run Conditions: human, plasma, po, Lebergesunde; read-out: Plasmahalbwertszeiten (converted)
Recorded Metric: half-life

Nc1nc(N)c2nc(-c3ccccc3)c(N)nc2n1 | ~5.5 h

====

# Assay Remarks: Plasma half-lives of TA and OH-TA-Ester after oral triamterene
# Assay type: in vivo, Menschen
# Run Conditions: human, plasma, po, Leberzirrhotiker, average; read-out: Plasmahalbwertszeiten (converted)
Recorded Metric: half-life (h)

Nc1nc(N)c2nc(-c3ccccc3)c(N)nc2n1 [TA, 2,4,7-Triamino-6-phenylpteridin] | 11.2
